- Tested Target: T1, recombinant human melanocortin-1 receptor (hMCR-1a) in membrane homogenates of HEK-293 cells (human, UniProt Q01726 1-317)
- T1 construct: whole, on cells; Used as membrane homogenates, not intact cells; also called hMCR-la; MC-1
- T1 sequence (Q01726 whole entry): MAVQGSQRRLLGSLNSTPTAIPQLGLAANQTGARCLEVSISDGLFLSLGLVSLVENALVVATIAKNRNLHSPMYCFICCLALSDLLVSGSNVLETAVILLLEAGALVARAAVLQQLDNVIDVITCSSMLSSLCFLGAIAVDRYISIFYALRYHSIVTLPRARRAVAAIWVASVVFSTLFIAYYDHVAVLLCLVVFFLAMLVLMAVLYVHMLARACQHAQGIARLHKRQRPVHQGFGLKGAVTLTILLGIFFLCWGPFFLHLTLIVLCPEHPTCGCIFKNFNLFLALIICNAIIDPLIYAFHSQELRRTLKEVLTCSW
- Assay Details: competitive inhibition of [I125]-NDP-alpha-MSH, hMCR-1 HEK-293 membranes
[ ]: non-standard residue; d: D form. Nle = CCCC[C@H](N)C(=O)O
# Ki annotations
Return type: number; implicit unit nM.

Ac-[Nle]AHFRAW-NH2 (SMILES CCCC[C@H](NC(C)=O)C(=O)N[C@@H](C)C(=O)N[C@@H](Cc1c[nH]cn1)C(=O)N[C@@H](Cc1ccccc1)C(=O)N[C@@H](CCCNC(=N)N)C(=O)N[C@@H](C)C(=O)N[C@@H](Cc1c[nH]c2ccccc12)C(N)=O, synthetic linear peptide) [Ac-Nle-Ala-His-Phe-Arg-Ala-Trp-NH2] = 85
Ac-[Nle]AH[dF]RAW-OH (SMILES CCCC[C@H](NC(C)=O)C(=O)N[C@@H](C)C(=O)N[C@@H](Cc1c[nH]cn1)C(=O)N[C@H](Cc1ccccc1)C(=O)N[C@@H](CCCNC(=N)N)C(=O)N[C@@H](C)C(=O)N[C@@H](Cc1c[nH]c2ccccc12)C(=O)O, synthetic linear peptide) [Ac-Nle-Ala-His-D-Phe-Arg-Ala-Trp-OH] = 6

Now let's try a different one.
Recorded result, Ac-[Nle]AK[dF]RAW-NH2 (SMILES CCCC[C@H](NC(C)=O)C(=O)N[C@@H](C)C(=O)N[C@@H](CCCCN)C(=O)N[C@H](Cc1ccccc1)C(=O)N[C@@H](CCCNC(=N)N)C(=O)N[C@@H](C)C(=O)N[C@@H](Cc1c[nH]c2ccccc12)C(N)=O, synthetic linear peptide) [Ac-Nle-Ala-Lys-D-Phe-Arg-Ala-Trp-NH2] , Ki: 4
